Measured concentration at 6 h, listed per entry.
experiment: Brain pharmacokinetics and brain/plasma ratio in male CD-1 mice (1 mg/kg i.v.); format: in vivo; settings: male, CD-1, mouse, brain, intravenous, 1 mg/kg, 1 mg/kg bolus i.v., 6 h; read-out: Brain concentration, Mean
Reply with the number, then its unit.

Note to self: concentration at 6 h recorded for CCn1c(=O)c2c(nc(/C=C/c3ccc(OC(F)F)c(OC(F)F)c3)n2C)n(CC)c1=O [Formula I] was 117 ng/g

Entry CCn1c(=S)c2c(nc(/C=C/c3ccc(OC)c(OC)c3)n2C)n(CC)c1=O [Formula III] ; concentration at 6 h = 88.6 ng/g

Below: the item to evaluate.
Record CCn1c(=O)c2c(nc(/C=C/c3ccc(OC)c(OC)c3)n2C)n(CC)c1=O [Istradefylline, reference compound] . Reported concentration at 6 h: 40.8 ng/g
